# System: Fruit
# Method Notes: Drug uptake in Solanum lycopersicum (tomato) fruit flesh after 60 to 151 days post germination by GC-ECD analysis
# Format: ADME
Where a name gives a salt, the structure may show the parent alone.
// returns no (0) unless Drug uptake is strictly below 10 ng/g, in which case yes (1)

1. Cl[C@H]1[C@H](Cl)[C@@H](Cl)[C@@H](Cl)[C@H](Cl)[C@H]1Cl :: no (0)
2. Cl[C@H]1[C@H](Cl)[C@@H](Cl)[C@H](Cl)[C@@H](Cl)[C@H]1Cl :: yes (1)
3. Cl[C@H]1[C@H](Cl)[C@@H](Cl)[C@H](Cl)[C@@H](Cl)[C@@H]1Cl :: yes (1)

q: Hello, is Drug uptake of the following molecule strictly smaller than 10 ng/g? O=S1(=O)OCC2C(CO1)C1(Cl)C(Cl)=C(Cl)C2(Cl)C1(Cl)Cl (centres undefined) [ENDOSULFAN SULFATE]
a: no (0)

q: Hello, is Drug uptake of the following molecule strictly smaller than 10 ng/g? Cl[C@H]1[C@H](Cl)[C@H](Cl)[C@@H](Cl)[C@H](Cl)[C@H]1Cl
a: yes (1)

q: Hello, is Drug uptake of the following molecule strictly smaller than 10 ng/g? O=S1OC[C@@H]2[C@H](CO1)[C@@]1(Cl)C(Cl)=C(Cl)[C@]2(Cl)C1(Cl)Cl (stereo partly drawn) [ALPHA-ENDOSULFAN]
a: yes (1)

q: Hello, is Drug uptake of the following molecule strictly smaller than 10 ng/g? Clc1ccc(C(c2ccc(Cl)cc2)C(Cl)(Cl)Cl)cc1
a: no (0)

q: Hello, is Drug uptake of the following molecule strictly smaller than 10 ng/g? ClC(Cl)=C(c1ccc(Cl)cc1)c1ccc(Cl)cc1
a: yes (1)

q: Hello, is Drug uptake of the following molecule strictly smaller than 10 ng/g? O=S1OC[C@@H]2[C@H](CO1)[C@]1(Cl)C(Cl)=C(Cl)[C@]2(Cl)C1(Cl)Cl (stereo partly drawn) [BETA-ENDOSULFAN]
a: yes (1)
